Listed molecules paired with reported IC50
# TESTED_TARGET: Ba/F3-TPM3-NTRK1 (Homo sapiens, UniProt P04629)
# Construct: the other entry of the earlier key: TPM3 (P06753, Tropomyosin alpha-3 chain)
# Sequence (P04629 510-796 limits assumed): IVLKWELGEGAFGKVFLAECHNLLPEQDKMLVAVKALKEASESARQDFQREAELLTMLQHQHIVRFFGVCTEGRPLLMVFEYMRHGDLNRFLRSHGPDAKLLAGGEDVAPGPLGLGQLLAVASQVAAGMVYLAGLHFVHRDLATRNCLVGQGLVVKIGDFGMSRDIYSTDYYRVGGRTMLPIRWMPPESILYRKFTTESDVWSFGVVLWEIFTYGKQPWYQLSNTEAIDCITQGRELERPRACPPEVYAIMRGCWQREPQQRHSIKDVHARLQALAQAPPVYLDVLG
# TEST: Ba/F3-TPM3-NTRK1 cells proliferation assay
# EXPERIMENTAL_CONTEXT: 72 h, CellTiter Glo
MEASURE: IC50 (nM)

molecule=N#Cc1cc2[nH]c(-c3cnn4ccc(N5CCC[C@@H]5c5cc(F)ccc5F)nc34)nc2cc1F readout_units=nM readout_value=1.9
molecule=CS(=O)(=O)c1cc2nc(-c3cnn4ccc(N5CCC[C@@H]5c5cc(F)ccc5F)nc34)[nH]c2cc1C#N readout_units=nM readout_value=2.08
molecule=COCCOc1cc2[nH]c(-c3cnn4ccc(N5CCC[C@@H]5c5cc(F)ccc5F)nc34)nc2cc1C#N readout_units=nM readout_value=2.91
molecule=CC(C)(O)Cc1nnc(-c2cnn3ccc(N4CCC[C@@H]4c4cc(F)ccc4F)nc23)[nH]1 readout_units=nM readout_value=13.8
molecule="C[S+]([O-])c1cc2nc(-c3cnn4ccc(N5CCC[C@@H]5c5cc(F)ccc5F)nc34)[nH]c2cc1C#N (stereo partly shown)" readout_units=nM readout_value=3.41
molecule=CN(C)c1cc2[nH]c(-c3cnn4ccc(N5CCC[C@@H]5c5cc(F)ccc5F)nc34)nc2cc1C#N readout_units=nM readout_value=3.39
molecule=O=C(O)c1nnc(-c2cnn3ccc(N4CCC[C@@H]4c4cc(F)ccc4F)nc23)[nH]1 readout_units=nM readout_value=4.1
